B1: Transitional endoplasmic reticulum ATPase, residues 26 to 106; numbered along this chain, P55072 (parent)
chain: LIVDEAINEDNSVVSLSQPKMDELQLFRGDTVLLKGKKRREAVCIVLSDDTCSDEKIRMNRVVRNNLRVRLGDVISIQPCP

- Variants of: B1
- ASSAY_EXPLANATION: abundance fitness (aPCA) (normalised: wild type 0, dead -1); higher = more abundant; growth selection in yeast, the domain comes from the species named
- EXPERIMENTAL_SETUP: Homo sapiens
Label rule, in plain words: abundance fitness of -0.07 and up is criterion met, under -0.07 is criterion not met.

Asked: Tell me whether abundance fitness is at least -0.07 here: S53F
Given back: criterion met

Asked: Tell me whether abundance fitness is at least -0.07 here: I75C
Given back: criterion not met

Asked: Tell me whether abundance fitness is at least -0.07 here: D22W
Given back: criterion not met

Asked: Tell me whether abundance fitness is at least -0.07 here: M59W
Given back: criterion not met

Asked: Tell me whether abundance fitness is at least -0.07 here: T31K
Given back: criterion met

Asked: Tell me whether abundance fitness is at least -0.07 here: K38I
Given back: criterion not met

Asked: Tell me whether abundance fitness is at least -0.07 here: I45S
Given back: criterion met

Asked: Tell me whether abundance fitness is at least -0.07 here: D54A
Given back: criterion not met

Asked: Tell me whether abundance fitness is at least -0.07 here: P81T
Given back: criterion met

Asked: Tell me whether abundance fitness is at least -0.07 here: L67S
Given back: criterion not met

Asked: Tell me whether abundance fitness is at least -0.07 here: T31G
Given back: criterion met

Asked: Tell me whether abundance fitness is at least -0.07 here: K38V
Given back: criterion not met

Asked: Tell me whether abundance fitness is at least -0.07 here: S12I
Given back: criterion not met

Asked: Tell me whether abundance fitness is at least -0.07 here: L47C
Given back: criterion met

Asked: Tell me whether abundance fitness is at least -0.07 here: P19E
Given back: criterion met

Asked: Tell me whether abundance fitness is at least -0.07 here: K35E
Given back: criterion not met

Asked: Tell me whether abundance fitness is at least -0.07 here: S48W
Given back: criterion not met

Asked: Tell me whether abundance fitness is at least -0.07 here: D49P
Given back: criterion not met

Asked: Tell me whether abundance fitness is at least -0.07 here: I45L
Given back: criterion met

Asked: Tell me whether abundance fitness is at least -0.07 here: D50V
Given back: criterion not met

Asked: Tell me whether abundance fitness is at least -0.07 here: L1R
Given back: criterion not met

Asked: Tell me whether abundance fitness is at least -0.07 here: L71M
Given back: criterion met

Asked: Tell me whether abundance fitness is at least -0.07 here: R40P
Given back: criterion not met

Asked: Tell me whether abundance fitness is at least -0.07 here: L24Y
Given back: criterion not met

Asked: Tell me whether abundance fitness is at least -0.07 here: D4N
Given back: criterion not met

Asked: Tell me whether abundance fitness is at least -0.07 here: S53W
Given back: criterion not met

Asked: Tell me whether abundance fitness is at least -0.07 here: C44Q
Given back: criterion met

Asked: Tell me whether abundance fitness is at least -0.07 here: D73P
Given back: criterion not met

Asked: Tell me whether abundance fitness is at least -0.07 here: S12F
Given back: criterion met

Asked: Tell me whether abundance fitness is at least -0.07 here: D30K
Given back: criterion not met

Asked: Tell me whether abundance fitness is at least -0.07 here: M21S
Given back: criterion not met

Asked: Tell me whether abundance fitness is at least -0.07 here: P81Y
Given back: criterion not met

Asked: Tell me whether abundance fitness is at least -0.07 here: L16V
Given back: criterion not met

Asked: Tell me whether abundance fitness is at least -0.07 here: K20S
Given back: criterion not met

Asked: Tell me whether abundance fitness is at least -0.07 here: P19I
Given back: criterion met

Asked: Tell me whether abundance fitness is at least -0.07 here: S17G
Given back: criterion not met

Asked: Tell me whether abundance fitness is at least -0.07 here: L67R
Given back: criterion not met

Asked: Tell me whether abundance fitness is at least -0.07 here: E55C
Given back: criterion met

Asked: Tell me whether abundance fitness is at least -0.07 here: S76V
Given back: criterion met

Asked: Tell me whether abundance fitness is at least -0.07 here: K56Y
Given back: criterion met

Asked: Tell me whether abundance fitness is at least -0.07 here: F27W
Given back: criterion not met

Asked: Tell me whether abundance fitness is at least -0.07 here: L16F
Given back: criterion not met

Asked: Tell me whether abundance fitness is at least -0.07 here: R70S
Given back: criterion met

Asked: Tell me whether abundance fitness is at least -0.07 here: L33K
Given back: criterion met

Asked: Tell me whether abundance fitness is at least -0.07 here: N60Q
Given back: criterion not met
